Measured Tm accompanies every entry in the list below.
ASSAY COMMENT: melting temperature; melt of duplexes
EXPERIMENTAL PARAMETERS: sodium 0.0675 M; strand 1 µM
The reply should contain only the number, in °C.

SUBSTANCE | Tm / °C
CGACGTGCGCCATGTGCTG+CAGCACATACGGCACGTCG ((((((((...((((((((+))))))))...)))))))) | 46.6

Prompt: May I ask what Tm has been recorded for CGACGTGCATAATGTGCTG+CAGCACATAAGGCACGTCG ((((((((.(.((((((((+)))))))).).)))))))) ?
Completion: 51.3

Prompt: Also check CGACGTGCTCGATGTGCTG+CAGCACATTTCGCACGTCG ((((((((...((((((((+))))))))...))))))))
Completion: 48.1

Prompt: How about CGACGTGCTCTATGTGCTG+CAGCACATCGCGCACGTCG ((((((((.(.((((((((+)))))))).).)))))))) ?
Completion: 48.3

Prompt: Now give it for CGACGTGCCTCATGTGCTG+CAGCACATAAGGCACGTCG ((((((((((.((((((((+)))))))).)))))))))) too.
Completion: 56.2

Prompt: Again, but for CGACGTGCGTCATGTGCTG+CAGCACATGCGGCACGTCG ((((((((..(((((((((+)))))))))..))))))))
Completion: 54.4

Prompt: Now consider CGACGTGCTCTATGTGCTG+CAGCACATTTTGCACGTCG ((((((((...((((((((+))))))))...)))))))) .
Completion: 49

Prompt: # iterate: CGACGTGCAGGATGTGCTG+CAGCACATTACGCACGTCG ((((((((...((((((((+))))))))...))))))))
Completion: 50.7

Prompt: One more substance: CGACGTGCTTCATGTGCTG+CAGCACATTCAGCACGTCG (((((((((..((((((((+))))))))..)))))))))
Completion: 50.7

Prompt: Queued: CGACGTGCGATATGTGCTG+CAGCACATATCGCACGTCG (((((((((((((((((((+)))))))))))))))))))
Completion: 64.1

Prompt: Also CGACGTGCATTATGTGCTG+CAGCACATTTCGCACGTCG ((((((((...((((((((+))))))))...)))))))) , if possible.
Completion: 48.3

Prompt: Subsequent entry: CGACGTGCGAAATGTGCTG+CAGCACATCGGGCACGTCG ((((((((...((((((((+))))))))...))))))))
Completion: 48.6

Prompt: Another: CGACGTGCAGTATGTGCTG+CAGCACATACAGCACGTCG ((((((((.((((((((((+)))))))))).))))))))
Completion: 57.4

Prompt: Thanks! And CGACGTGCTTCATGTGCTG+CAGCACATGGAGCACGTCG (((((((((.(((((((((+))))))))).))))))))) ?
Completion: 60

Prompt: Same read-out for CGACGTGCGGAATGTGCTG+CAGCACATCGGGCACGTCG ((((((((...((((((((+))))))))...)))))))) ?
Completion: 50
